# ASSAY METHOD TEXT: amyloid nucleation score (Sup35N fusion, yeast selection) (log enrichment); library NNK1; higher = more nucleation; inactive = no reads after selection;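 further: zero at mode of non-aggregating sequences after 7 days selection at 30°C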

- SUBSTANCE: "SNSLFNVSQSRSSKSLYQNA"
  amyloid nucleation score: 0.264
- SUBSTANCE: "WSTHRQESFALYSKCMEVRR"
  amyloid nucleation score: 0.186
- SUBSTANCE: "VFSNLELTFDRGCFPVRCLR"
  amyloid nucleation score: -0.482
- SUBSTANCE: "RKLLSISL"
  amyloid nucleation score: 0.22
- SUBSTANCE: "FWGNGQRVNSNIQRDVKWDA"
  amyloid nucleation score: -0.199
- SUBSTANCE: "FVLGWQI"
  amyloid nucleation score: 1.63
- SUBSTANCE: "GFSSMRYEGFGTGKCVDFLS"
  amyloid nucleation score: 0.281
- SUBSTANCE: "ETRANGVESFSTDLYMHFLD"
  amyloid nucleation score: 1.16
- SUBSTANCE: "VTIYFILRNGGRVSESLNPW"
  amyloid nucleation score: 7.19
- SUBSTANCE: "NTGREVFIRIMCPL"
  amyloid nucleation score: -0.212
- SUBSTANCE: "MRLNYGNITLSFGSPMMQTI"
  amyloid nucleation score: 0.682
- SUBSTANCE: "IMFLRLFKGLCMKYSVRRDC"
  amyloid nucleation score: -0.512
- SUBSTANCE: "YLQEWRIGRVGCVGFTCRCR"
  amyloid nucleation score: 0.279
- SUBSTANCE: "VSSGRRIGCVSPGSGEAREW"
  amyloid nucleation score: 0.376
- SUBSTANCE: "NWNFIRRSARVWSR"
  amyloid nucleation score: -1.7
- SUBSTANCE: "YTTVVQF"
  amyloid nucleation score: 0.064
- SUBSTANCE: "LQWNRERGLTLLSWLRYKSI"
  amyloid nucleation score: -0.505
- SUBSTANCE: "ISPYPPRHLLQWVCKGE"
  amyloid nucleation score: 0.034
- SUBSTANCE: "VVCQSDILDLSMWTMMGVSM"
  amyloid nucleation score: -0.823
- SUBSTANCE: "AEGCRIPGRQSYRYGDICPR"
  amyloid nucleation score: -0.373
- SUBSTANCE: "RACFRVIYWFSLLDKVGETV"
  amyloid nucleation score: -0.427
- SUBSTANCE: "PKVFIEKAAIYIFAL"
  amyloid nucleation score: 0.029
- SUBSTANCE: "NVNETT"
  amyloid nucleation score: -0.547
- SUBSTANCE: "LRFVVFASTIGRGIGST"
  amyloid nucleation score: -0.892
- SUBSTANCE: "ISCTTFACTTRLKIRAAS"
  amyloid nucleation score: 0.434
- SUBSTANCE: "YSRYYVNVVWFLGKLRS"
  amyloid nucleation score: 0.012
- SUBSTANCE: "VYATSSIKIAVPVLHQAVLP"
  amyloid nucleation score: 3.14
- SUBSTANCE: "INLYVNISRFIPCV"
  amyloid nucleation score: 0.027
- SUBSTANCE: "ACHQGGMTSPNTRSTLFRVW"
  amyloid nucleation score: 0.8
- SUBSTANCE: "LYYFCLAINFSLGEGTAFVQ"
  amyloid nucleation score: -0.133
- SUBSTANCE: "YGFSNYRMIVQLYNLFSMYD"
  amyloid nucleation score: 3.04
- SUBSTANCE: "LPLHAESTGCYGLFSEHFSI"
  amyloid nucleation score: -1.27
- SUBSTANCE: "YHDVGSAVRMLYQMGPKRVF"
  amyloid nucleation score: -0.442
- SUBSTANCE: "LNYTVQSDTWHLNWQP"
  amyloid nucleation score: 0.875
- SUBSTANCE: "SDPCKCTYCSYLSLDITLYA"
  amyloid nucleation score: 0.05
- SUBSTANCE: "NTTAWPVYFYLWFRKTGWPL"
  amyloid nucleation score: -0.371
- SUBSTANCE: "GFVPLWLW"
  amyloid nucleation score: 0.977
- SUBSTANCE: "YKCVYFGMETAVGNTAQERP"
  amyloid nucleation score: 0.861
- SUBSTANCE: "EYLSDDGI"
  amyloid nucleation score: 0.131
- SUBSTANCE: "FLLAPTLL"
  amyloid nucleation score: -0.367
- SUBSTANCE: "IKGPLLFIFSESVLAFDETS"
  amyloid nucleation score: 3.6
- SUBSTANCE: "FFIETVYATKNYKHW"
  amyloid nucleation score: 2.76
- SUBSTANCE: "DLILPRRLSYGYLPVLEGPS"
  amyloid nucleation score: -0.222
- SUBSTANCE: "RKYEGGRAKVWHGPCSVS"
  amyloid nucleation score: 1.07
- SUBSTANCE: "LCWRYMVLRMNFFAADLYYN"
  amyloid nucleation score: 1.39
- SUBSTANCE: "LAVERGHCIQVRGLKCLIES"
  amyloid nucleation score: 1.66
- SUBSTANCE: "YKSNKWSPSQKRKG"
  amyloid nucleation score: -1.37
- SUBSTANCE: "RGCPAFDNVTSYDESSEWSY"
  amyloid nucleation score: 0.365
- SUBSTANCE: "ASGDMSDWISWLGSMRCKIR"
  amyloid nucleation score: -0.082
- SUBSTANCE: "LDCELLQRNFSNTKGHPIYR"
  amyloid nucleation score: 0.052
- SUBSTANCE: "WVGQVLGREENCASASSFSE"
  amyloid nucleation score: -1.89
- SUBSTANCE: "NFGVSSNLCGGIWIYW"
  amyloid nucleation score: 4.74
- SUBSTANCE: "CTYVLWRGMKGFR"
  amyloid nucleation score: 0.05
- SUBSTANCE: "ENTVDPLRLDWCSGTSVWYK"
  amyloid nucleation score: 0.54
- SUBSTANCE: "INLGFLWTCARDAVFLYDLS"
  amyloid nucleation score: 2.31
- SUBSTANCE: "ALRIHGLCFEVVCMRIWSRR"
  amyloid nucleation score: 0.436
- SUBSTANCE: "ALKLARG"
  amyloid nucleation score: -0.019
- SUBSTANCE: "EDGPWACTCYYCGQGRRTWV"
  amyloid nucleation score: 0.16
- SUBSTANCE: "TVIFMCLTAFGTSGNHIGSR"
  amyloid nucleation score: -0.776
- SUBSTANCE: "DWSIDILYSVIRSPVNLINS"
  amyloid nucleation score: -1.01
- SUBSTANCE: "RWMPFISLSVNLTGNYLIRL"
  amyloid nucleation score: 2.25
- SUBSTANCE: "WLTNWFEPRWSLVMQSVRCP"
  amyloid nucleation score: -0.121
- SUBSTANCE: "KDSGYMCWMGDLCVWSP"
  amyloid nucleation score: 5.97
- SUBSTANCE: "SNRGRNLGSYCVGNYFGCFT"
  amyloid nucleation score: -0.224
- SUBSTANCE: "HRNRFYVVLYRNLDLWL"
  amyloid nucleation score: -0.197
- SUBSTANCE: "EPIVLTVCCFSPKDVSQDLN"
  amyloid nucleation score: 0.749

----------
Reported amyloid nucleation score values are given for each entry in this list.
# ASSAY METHOD TEXT: amyloid nucleation score (Sup35N fusion, yeast selection) (log enrichment); library NNK1; higher = more nucleation; inactive = no reads after selection

- CHAIN SEQUENCE: "HSGTVVYNMEMKKINSCYLL"
  amyloid nucleation score: 2.58
- CHAIN SEQUENCE: "MVDPRVTS"
  amyloid nucleation score: -0.86
- CHAIN SEQUENCE: "CHSHDVCRGMLT"
  amyloid nucleation score: -0.135
- CHAIN SEQUENCE: "SCGNVGQRVVNIQYVGNSRF"
  amyloid nucleation score: 6.34
- CHAIN SEQUENCE: "LVSMRMAFCPWLVRKGIPL"
  amyloid nucleation score: 0.206
- CHAIN SEQUENCE: "RLASYHITVYRHTRSIVQ"
  amyloid nucleation score: 0.612
- CHAIN SEQUENCE: "WGKLTKQERGWDNDKVNQEC"
  amyloid nucleation score: 0.094
- CHAIN SEQUENCE: "DMLFPAMRYAVHDVSVSAGN"
  amyloid nucleation score: 0.582
- CHAIN SEQUENCE: "DRFNCKCFVLSKVLCWYGVG"
  amyloid nucleation score: 0.851
- CHAIN SEQUENCE: "VPGRWHSLCASYTLYA"
  amyloid nucleation score: 0.469
- CHAIN SEQUENCE: "QFYHLYCHKIYCFRGEFRRR"
  amyloid nucleation score: 1.83
- CHAIN SEQUENCE: "VSNVRNSCLHLSARLYSTDL"
  amyloid nucleation score: -0.702
- CHAIN SEQUENCE: "CYGGWVYLLRIALCGEDSVI"
  amyloid nucleation score: 0.58
- CHAIN SEQUENCE: "ITKSRLWHDWLTRRVMTTDC"
  amyloid nucleation score: -0.241
- CHAIN SEQUENCE: "VHATLLNHA"
  amyloid nucleation score: 0.898
- CHAIN SEQUENCE: "RFISCMFFKYIPLQCFVLGR"
  amyloid nucleation score: 0.548
